experiment: chemical genetic growth profiling, strain panel (AID 1159580);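 also: tested at 20 µM; growth read once vehicle control cultures reached saturation at 30 °C; lower values mean less growth of the strain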; details: S. cerevisiae deletion strains, growth OD, locus YIR030C, strain dcg1
Among all 5,500 compounds or so, about 2,000 (36%) were called active. Another 18% or so got no clear call; they are omitted. Rule as the data show it: active = normalized growth mostly below about 0.91 (no sharp cut-off); inconclusive = no clear call, values can overlap the other calls; inactive = mostly above about 0.92. The list shows a part of the results.
The reply should name one outcome from true (active), false (inactive)

// return assay outcome for CCCCCCCCCCCCCCCC[n+]1ccccc1
true

// return assay outcome for C[n+]1cc2c3c(ccc2c2ccc4cc5c(cc4c21)OCO5)OCO3
true

// return assay outcome for Cn1nnnc1SCC1=C(C(=O)O)N2C(=O)C(NC(=O)C(O)c3ccccc3)C2SC1 (stereo not given)
false

// return assay outcome for COc1c(O)cccc1O
false

// return assay outcome for CC(=O)Oc1cc(OC(C)=O)c2c(=O)c(-c3ccccc3)coc2c1
false

// return assay outcome for Cc1coc2ccccc2c1=O
false

// return assay outcome for COc1ccc2cc3[n+](cc2c1OC)CCc1cc2c(cc1-3)OCO2
true

// return assay outcome for CC(=O)O[C@H]1C[C@@]2(C)[C@H](c3ccoc3)OC(=O)[C@H]3O[C@]32[C@@]2(C)C1[C@]1(C)C(C[C@H]2OC(C)=O)C(C)(C)[C@H](OC(C)=O)C[C@@H]1OC(C)=O (stereo not given in full)
false

// return assay outcome for CN1CCc2c(c3ccccc3n2Cc2ccccc2)C1
false

// return assay outcome for CC(C)[C@]12O[C@H]1[C@@H]1O[C@@]13[C@@]1(C)CCC4=C(COC4=O)[C@@H]1C[C@@H]1O[C@@]13C2=O
false

// return assay outcome for CCCN1C[C@H](CSC)C[C@@H]2c3cccc4[nH]cc(c34)C[C@H]21
false

// return assay outcome for COc1cc2c3cc1Oc1cc(ccc1O)C[C@@H]1c4c(cc(OC)c(O)c4Oc4ccc(cc4)C[C@@H]3N(C)CC2)CC[N+]1(C)C
false

// return assay outcome for CSc1ccc2c(c1)C(N1CCN(C)CC1)Cc1ccccc1S2 (stereo not given)
false

// return assay outcome for CC(=O)CC(c1ccccc1)c1c(O)c2ccccc2oc1=O (stereo not given)
false

// return assay outcome for Nc1ccc(C(=O)Oc2ccccc2)c(O)c1
true

// return assay outcome for CC(=O)Oc1cc(-c2coc3cc(OC(C)=O)c(OC(C)=O)c(OC(C)=O)c3c2=O)cc(OC(C)=O)c1OC(C)=O
false

// return assay outcome for CC(=O)Oc1c(-c2ccccc2)oc2c(CC=C(C)C)c3c(c(OC(C)=O)c2c1=O)C=CC(C)(C)O3
false

// return assay outcome for NC(=O)CC[C@@H](N)C(=O)O
false

// return assay outcome for Cc1cc2cc3c(C)cc(=O)oc3c(C)c2o1
false

// return assay outcome for C=C1C2CC[C@@]3(C)[C@H](c4ccoc4)OC(=O)C[C@]13O[C@H]1CC(=O)C(C)(C)[C@H](C(O)C(=O)OC)[C@@]21C (stereo not given in full)
false

Where do the numbers come from? From PubChem BioAssay AID1159580.
